Entries and their Reduced relative colony forming efficiency, HepG2 (% inhibition of colony forming ability) values follow.
Tested on: HepG2 hepatocellular carcinoma
Experiment: Relative colony forming efficiency (Example 17, Table 13)
Assay type: cell-based, human
Conditions: averages of 2-8 determinations
Oligonucleotides are written 5' to 3', each unit as a sugar letter and its base; * is a phosphorothioate linkage, no mark a phosphodiester; rarer units and linkages stand in square brackets, end groups in braces. Plain capitals give the bases only. d = 2'-deoxy (DNA)

// below: answered sequences
>>> val("TTAGTCTTTCCTTCCAGTGA (antisense dT*dT*dA*dG*dT*dC*dT*dT*dT*dC*dC*dT*dT*dC*dC*dA*dG*dT*dG*dA) [AS-II-1254-20]")
"83.28%"
>>> val("CCTTGCCCTGAGAGATTCCT (antisense dC*dC*dT*dT*dG*dC*dC*dC*dT*dG*dA*dG*dA*dG*dA*dT*dT*dC*dC*dT) [AS-II-2083-20]")
"93.64%"

Now turn to the next sequence.
Looking up ACCCCTCACTCCAGCAGCCT (antisense dA*dC*dC*dC*dC*dT*dC*dA*dC*dT*dC*dC*dA*dG*dC*dA*dG*dC*dC*dT) [AS-II-110-20] , I see its Reduced relative colony forming efficiency, HepG2 (% inhibition of colony forming ability) listed as 97.14%

----------
System: A549 lung cell carcinoma
Assay: Relative colony forming efficiency (Example 17, Table 13)
Format: cell-based, human
Settings: averages of 2-8 determinations
Oligonucleotides are written 5' to 3', each unit as a sugar letter and its base; * is a phosphorothioate linkage, no mark a phosphodiester; rarer units and linkages stand in square brackets, end groups in braces. Plain capitals give the bases only. d = 2'-deoxy (DNA)
Met means recorded Reduced relative colony forming efficiency, A549 (% inhibition of colony forming ability) is 80% or above; Not met means it is below 80%.

>>> class_label("GTCTCTCCTCCGATGGTTTG [AS-II-1040-20]")
"Met"

Problem: Assess whether reported Reduced relative colony forming efficiency, A549 (% inhibition of colony forming ability) for CGGAGGGAGAGCATAGTGGA (antisense dC*dG*dG*dA*dG*dG*dG*dA*dG*dA*dG*dC*dA*dT*dA*dG*dT*dG*dG*dA) [AS-II-189-20] sits at 80% or higher.
Result: Not met

Problem: Hi team, for GAACATCAGGCAAGCAAAAT (antisense dG*dA*dA*dC*dA*dT*dC*dA*dG*dG*dC*dA*dA*dG*dC*dA*dA*dA*dA*dT) [AS-II-1006-20] , is the recorded Reduced relative colony forming efficiency, A549 (% inhibition of colony forming ability) at or above 80%?
Result: Not met

Problem: Reported Reduced relative colony forming efficiency, A549 (% inhibition of colony forming ability) at or above 80%? TCAGGCAAGCAAAATCACAG (antisense dT*dC*dA*dG*dG*dC*dA*dA*dG*dC*dA*dA*dA*dA*dT*dC*dA*dC*dA*dG) [AS-II-1001-20]
Result: Not met

----------
Test system: T24 bladder cell carcinoma
Experiment: Relative colony forming efficiency (Example 17, Table 13)
Format: cell-based, human
Details: averages of 2-8 determinations
Oligonucleotides are written 5' to 3', each unit as a sugar letter and its base; * is a phosphorothioate linkage, no mark a phosphodiester; rarer units and linkages stand in square brackets, end groups in braces. Plain capitals give the bases only. d = 2'-deoxy (DNA)
# Reduced relative colony forming efficiency, T24 (% inhibition of colony forming ability) listing for each entry below
Return type: number; implicit unit %.

>>> val("GCATCCAAGGTAAAAGAATT (antisense dG*dC*dA*dT*dC*dC*dA*dA*dG*dG*dT*dA*dA*dA*dA*dG*dA*dA*dT*dT) [AS-II-1335-20]")
59.95

Readout Reduced relative colony forming efficiency, T24 (% inhibition of colony forming ability) for AS-II-134220 (antisense dG*dA*dA*dG*dT*dC*dA*dG*dC*dA*dT*dC*dC*dA*dA*dG*dG*dT*dA*dA) , test system T24 bladder cell carcinoma, was 59.76

Form field Reduced relative colony forming efficiency, T24 (% inhibition of colony forming ability) for item CGGCGGCGTGTTCTCCTTGT (antisense dC*dG*dG*dC*dG*dG*dC*dG*dT*dG*dT*dT*dC*dT*dC*dC*dT*dT*dG*dT) [AS-II-280-20] on T24 bladder cell carcinoma: 90.56

Entry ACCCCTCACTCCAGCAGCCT (antisense dA*dC*dC*dC*dC*dT*dC*dA*dC*dT*dC*dC*dA*dG*dC*dA*dG*dC*dC*dT) [AS-II-110-20] under T24 bladder cell carcinoma had Reduced relative colony forming efficiency, T24 (% inhibition of colony forming ability) of 87.78

Value (Reduced relative colony forming efficiency, T24 (% inhibition of colony forming ability), T24 bladder cell carcinoma) for record CGGGTCCGTGATGGGCGCGA (antisense dC*dG*dG*dG*dT*dC*dC*dG*dT*dG*dA*dT*dG*dG*dG*dC*dG*dC*dG*dA) [AS-II-217-20] = 65.02

Reported Reduced relative colony forming efficiency, T24 (% inhibition of colony forming ability) (T24 bladder cell carcinoma) for entry CAGAATATCGACGCAAAAGA (dC*dA*dG*dA*dA*dT*dA*dT*dC*dG*dA*dC*dG*dC*dA*dA*dA*dA*dG*dA) [AS-II-909-20] is 78.57
